- target_or_system: Ephrin type-B receptor 4 (Homo sapiens)
- Sequence (P54760 whole entry): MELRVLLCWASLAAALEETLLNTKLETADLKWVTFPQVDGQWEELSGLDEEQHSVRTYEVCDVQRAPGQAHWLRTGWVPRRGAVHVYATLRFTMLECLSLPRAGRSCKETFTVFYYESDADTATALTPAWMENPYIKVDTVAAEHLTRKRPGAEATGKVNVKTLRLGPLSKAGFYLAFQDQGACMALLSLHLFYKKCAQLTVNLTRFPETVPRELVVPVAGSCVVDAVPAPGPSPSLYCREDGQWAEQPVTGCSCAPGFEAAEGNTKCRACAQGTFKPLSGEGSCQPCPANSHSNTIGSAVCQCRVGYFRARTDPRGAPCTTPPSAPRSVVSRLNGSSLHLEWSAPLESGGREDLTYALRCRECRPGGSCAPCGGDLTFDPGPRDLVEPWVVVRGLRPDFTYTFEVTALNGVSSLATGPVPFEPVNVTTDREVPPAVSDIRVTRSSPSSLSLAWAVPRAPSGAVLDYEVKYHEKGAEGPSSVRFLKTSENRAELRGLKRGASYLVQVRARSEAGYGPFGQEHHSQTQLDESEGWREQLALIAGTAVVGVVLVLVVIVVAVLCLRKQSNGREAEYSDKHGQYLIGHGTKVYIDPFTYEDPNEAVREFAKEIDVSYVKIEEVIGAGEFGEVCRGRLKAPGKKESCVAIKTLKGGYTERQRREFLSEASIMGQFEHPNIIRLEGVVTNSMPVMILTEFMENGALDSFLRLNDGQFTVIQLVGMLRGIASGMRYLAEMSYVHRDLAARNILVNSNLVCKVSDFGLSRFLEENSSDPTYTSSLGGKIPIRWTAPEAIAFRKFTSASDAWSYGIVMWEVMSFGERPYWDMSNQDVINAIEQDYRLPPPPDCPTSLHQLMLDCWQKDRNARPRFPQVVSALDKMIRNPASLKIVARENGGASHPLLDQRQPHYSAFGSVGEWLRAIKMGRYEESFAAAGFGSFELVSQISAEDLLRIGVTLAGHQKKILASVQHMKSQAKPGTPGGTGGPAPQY
reported_endpoint: pIC50
The quantity pIC50 is defined as the negative base-10 logarithm of the molar concentration.

Request: Would you please give the reported pIC50 of `CCCCn1c(-c2ccccc2C)cn2c3c(=O)[nH]c(=O)n(C)c3nc12` with Ephrin type-B receptor 4 (Homo sapiens)?
Result: 7.09

---

- assay_summary: Apparent permeability from apical to basolateral side in human Caco2 cells after 2 hrs by LC-MS/MS analysis
- Type: ADME, cell-based
- condition_label: Caco-2
reported_endpoint: Papp A→B at 2 h

Some entries whose results are on file:
[
  {
    "smiles": "COc1ccccc1-n1c(-c2ccccc2)cn2c3c(=O)[nH]c(=O)n(C)c3nc12",
    "Papp A→B at 2 h": "32.3 ×10⁻⁶ cm/s"
  },
  {
    "smiles": "CCCCn1c(-c2ccccc2)cn2c3c(=O)[nH]c(=O)n(C)c3nc12",
    "Papp A→B at 2 h": "42.5 ×10⁻⁶ cm/s"
  },
  {
    "smiles": "COc1ccccc1-n1c(-c2cc(O)ccc2C)cn2c3c(=O)[nH]c(=O)n(C)c3nc12",
    "Papp A→B at 2 h": "3.13 ×10⁻⁶ cm/s"
  }
]

Turning now to a further compound:
Request: Report Papp A→B at 2 h, nothing else, for this compound: `CCCCn1c(-c2ccccc2C)cn2c3c(=O)[nH]c(=O)n(C)c3nc12`
Result: 42.7 ×10⁻⁶ cm/s
